Numbers sourced from patent US9364554B2.

- Test system: MCF7
- PROCEDURE DETAILS: In vitro cell proliferation assay (CellTiter-Glo, 3 days) MCF7
- Format: cell-based
- TEST SETTINGS: Homo sapiens, MCF7, read-out: IC50 MCF7
ENDPOINT LABEL: IC50 (nM)
Output spec: scalar in nM, unitless text.

Returns the measured IC50 for the input compound. Input: C[C@]12CC[C@H](OC3OC[C@H](N)[C@@H](O)[C@@H]3O)C=C1CCC1C2CC[C@]2(C)[C@@H](c3ccc(=O)oc3)CC[C@]12O (stereo partly shown)
2.6

* * *

- Tested on: A549
- PROCEDURE DETAILS: In vitro cell proliferation assay (CellTiter-Glo, 3 days) A549
- Format: cell-based, human
- TEST SETTINGS: Homo sapiens, A549, 72 h, read-out: IC50 A549, 3 days, CellTiter-Glo
ENDPOINT LABEL: pIC50
// field semantics: pIC50 = negative decimal log of concentration (mol/L)

Returns the measured pIC50 for the input compound. Input: C[C@]12CC[C@H](OC3OC[C@H](N)[C@@H](O)[C@@H]3O)C=C1CCC1C2CC[C@]2(C)[C@@H](c3ccc(=O)oc3)CC[C@]12O (stereo partly shown)
9.25

* * *

- System: MCF10a
- PROCEDURE DETAILS: Cytotoxicity IC50 on MCF10a
- Type: cell-based
- TEST SETTINGS: Homo sapiens, MCF-10A; Example 9
ENDPOINT LABEL: pIC50
// field semantics: pIC50 = negative decimal log of concentration (mol/L)

Test system MCF10a; read-out pIC50; what value for C[C@]12CC[C@H](OC3OC[C@H](N)[C@@H](O)[C@@H]3O)C=C1CCC1C2CC[C@]2(C)[C@@H](c3ccc(=O)oc3)CC[C@]12O (stereo partly shown) ?
8.18
